Assay: soluble on expression in E. coli; label from the status in PepcDB or PDB records

>  <Chain>
GHDEIGQLATTFNHLTRELEDAQAMTEGERRKLASVIAYMTDGVIATNRNGAIILLNSPALELLNVSRETALEMPITSLLGLQENYTFEDLVEQQDSMLLEIERDDELTVLRVNFSVIQREH

>  <soluble on expression in E. coli>
not soluble

$$$$
>  <Chain>
MKKIGIIGGTTPESTLYYYKKYIEISREKFEKYFYPELIIYSINFKEFFQNPEGWEGRKKILINAAKALERAGAELIAFAANTPHLVFDDVQREVNVPMVSIIDAVAEEILKRGVRKVLLLGTKTTMTADFYIKTLEEKGLEVVVPNDEEKEELNRIIFEELAFGNLKNKEWIVRLIEKYRESEGIEGVILGCTELPLAIKQGDVSVEVFDSAEIHMRKLIELASE

>  <soluble on expression in E. coli>
soluble

$$$$
>  <Chain>
MGSDKIHHHHHHMHSMRLSQIQDFIAVAEGGSIRAAARTRDVSAPALTKSIRQLEDELHVPLLTRTTRGVVLSHYGEAFLRRARLIATEARRATEEMTQMLGARTGTVRIGVTGGPAHLLLPAALNRFRRQHPEVQVYIDSGRSAVHLQDLRAGLIDVAVSPIPDEGIDHDFICEPLYNNDSVVVAHQDHPLRHARTLRELVGSEWILTTCRMHGPGAAIMDAFRAQDLPLPRVAVRCDTFNLIQALLQNRRLLCMVARQLMQDRVGASTGLAVLPIEDPLPSHTVCLIYRADSPMPPVVASFAAQLRREAHYLINMPDSPLKRPGAPPEPRDDKPVETADIAV

>  <soluble on expression in E. coli>
not soluble

$$$$
>  <Chain>
MSAKMDEQALLALLRELAIDSQRVEHPAIASIEEYYAQGIELPDQGIKNLFLRNRKGTRHYLVLLDERKEADLPGIAEQIGESRLSFASVERLREYLGVELGCVTPFALVNDPQHRVEVLLDDAIRQDQLLGFHPLVNTATECIRYADLLAFLAHTGHEPRLIRA

>  <soluble on expression in E. coli>
not soluble

$$$$
>  <Chain>
MRKIVLFGDSITAGYLDEAVSPVLVDLVKRDIAAMGLEEVAVINAGMPGDTTEDGLKRLNKEVLIEKPDEVVIFFGANDASLDRNITVATFRENLETMIHEIGSEKVILITPPYADSGRRPERPQTRIKELVKVAQEVGAAHNLPVIDLYKAMTVYPGTDEFLQADGLHFSQVGYELLGALIVREIKGRLKPKQA

>  <soluble on expression in E. coli>
soluble

$$$$
>  <Chain>
MSLENDSLEITYLGKRYKISLNNTFSDEMKRTLKERFHNQELNALELLKDYLHESCQNEYLHNELQKLLEKISSCSIT

>  <soluble on expression in E. coli>
not soluble

$$$$
>  <Chain>
MQLNSSSFHPHHFTCDTTRYSEEQVACICEALSNDARKLSQFVWTVLERDEMRNNQYILKAQAFLAFHSNNFKELYRIIESHHFASEHHLPLQEWWLNAHYHEAEKIRGRQLGAVGKYRIRRKYPLPRTIWDGEETSYCFRDKSRVLLRDWYCRNSYPSPREKRELAEKTHLTVTQVSNWFKNRRQRDRAGVPEPKDCLKDISEEEDLKLIRKTASKLSNSFHNPSDLSSYSAAAAAATFPGFYMNYNDMMIGAGTSYQSL

>  <soluble on expression in E. coli>
not soluble

$$$$
>  <Chain>
MKSEPDTFSIDDLERVGTEPWNGVRNYQARNFMRDGMHVGDGVFFYHSNCKVPGIVGIAKVASAAYPDDTQFDPSSDYHDPKSTREDPRWMLVDVAFERKLTRTISLDEIKQQADALGEGFPLIARGNRLSILPVTAAQWKVLLAMELEHHHHHH

>  <soluble on expression in E. coli>
not soluble

$$$$
>  <Chain>
EVQLLESGGGLVQPGGSLRLSAAASGFTFSTFSMNWVRQAPGKGLEWVSYISRTSKTIYYADSVKGRFTISRDNSKNTLYLQMNSLRAEDTAVYYVARGRFFDYWGQGTLVTVS

>  <soluble on expression in E. coli>
soluble

$$$$
>  <Chain>
MSLNQSFTQFGDGYASTGTLNIGDVLDIMIWEAPPAVLFGGGLSSMGSGSAQQTKLPEQLVTARGTVSVPFVGDISVVGKTPGQVQEIIKGRLKKMANQPQVMVRLVQNNAANVSVIRAGNSVRMPLTAAGERVLDAVAAVGGSTANVQDTNVQLTRGNVVRTVALEDLVANPRQNILLRRGDVVTMITNPYTFTSMGAVGRTQEIGFSARGLSLSEAIGRMGGLQDRRSDARGVFVFRYTPLVELPAERQDKWIRQGYGSEAEIPTVYRVNMADAHSLFSMQRFPVKNKDVLYVSNAPLAEVQKFLSFVFSPVTSGANSINNLTNEGHHHHHH

>  <soluble on expression in E. coli>
not soluble

$$$$
>  <Chain>
MGSDKIHHHHHHMDEMKVIEIIKKTLKFSNENIVKGIDDDCAIIKIDENFYLVATTDMMVKKAHIPSILSPYEIGGRILTANVSDIASMGAKPLAFLVSISLSKEEANEKFIKELYSGLDDFSKLYDCPVVGGDTNRGDELILSGTAFGITDNPIYRRGKVGDDICVTNDLGRVYCALTLYYMLKENKISYKEFERLCQKYPKIIEKLRKPIARIKEGLLMNKLINGCCDISDGLGKEITYFKNFEIYSDRIFKLIPEDVIEFCDAFNLNPIKVALNSGEEFELLFTTSKFNKVKDSLKGYSKIYKIGKIIEDGQFIDGEEFYGGGYIHKW

>  <soluble on expression in E. coli>
not soluble

$$$$
>  <Chain>
SLRITLEFTGEKNLILPIHYNYIVQGLLYDLMGDTDFAAFLHDVGFQYEKRRFKLFTFSRIEGEFQIVEKPNGQKKIIIKPPFKFTVASPLEEVIIDISKNILKREYCHFNGQKFTLNSLNIENPPIFKEKARIKFISPVVMYTTLRNGEKKYTYYYSPWDEKFSPLLLNNLVKKYELVYKIKPKNPHFKLIPLTEKEDRRYSKVIKYKNVYVKGWMGIYDVETTPELLELAYYTGLGAKNSQGFGCFEIIG

>  <soluble on expression in E. coli>
not soluble

$$$$
>  <Chain>
MKCTECSHEAGVSSFRYLYNARIDAPITLRQCPQCQAWLAVDEMAGEARQRVDAGEAPWGKSAGIEGLAEDAR

>  <soluble on expression in E. coli>
not soluble

$$$$
>  <Chain>
DESATSYANSAIAIELDGDQYVARIKDPLADHAKYTEAFHAVGLDIDLRLVPASPTAVGKFLSVRWSKSSGAGPARSASGGSLPTLKFTPENCGEPNQAGCELTMRVPADYTGNMSLSLGRRAEPGEEYKNPDWATAPGEMFGGVQLQDGRPVDAMLAEARRRDLTVEFSRIRPDAETGALSFEPLSADQVRGDWTVWHAWQVKAGVIRLLVTPERLPENPFEKGARPPS

>  <soluble on expression in E. coli>
not soluble

$$$$
